Values were extracted from patent US20230365553A1.

- tgt: STING (Homo sapiens, UniProt Q86WV6, G230A/H232R/R293Q/R71H)
- Sequence (Q86WV6 whole entry R71H/G230A/H232R/R293Q): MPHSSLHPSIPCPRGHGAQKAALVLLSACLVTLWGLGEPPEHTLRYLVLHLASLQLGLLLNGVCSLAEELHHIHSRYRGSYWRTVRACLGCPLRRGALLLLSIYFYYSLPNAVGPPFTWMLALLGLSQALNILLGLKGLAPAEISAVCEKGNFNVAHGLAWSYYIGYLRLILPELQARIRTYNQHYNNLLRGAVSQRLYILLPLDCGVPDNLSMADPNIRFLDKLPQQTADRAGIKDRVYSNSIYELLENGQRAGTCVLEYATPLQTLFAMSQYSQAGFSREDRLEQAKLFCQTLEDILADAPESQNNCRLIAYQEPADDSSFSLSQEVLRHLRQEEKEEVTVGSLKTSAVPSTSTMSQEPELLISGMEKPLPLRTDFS
- assay_procedure: STING reporter assay: luciferase reporter activity in THP1-Dual KO-IFNAR2 cells stimulated with 2′3′cGAMP
- test_settings: 15 μM 2′3′cGAMP, 24h, read-out: hSTING EC50
observation_type: EC50

For orientation, consider the following solved cases.
INSERT INTO measurements (molecule, observation_type, measured) VALUES
  ('CCc1ccc(-n2cc(-c3ccc4[nH]cc(NC(=O)C5CCN(C(=O)OC(C)(C)C)C5)c4c3)cn2)cc1 (stereo not shown)', 'EC50', '200 to 1000 nM'),
  ('Cn1cc(C(=O)Nc2c[nH]c3ccc(-c4cnn(-c5ccc(C(F)(F)F)cc5)c4)cc23)nn1', 'EC50', '200 to 1000 nM'),
  ('CC(=O)Nc1c[nH]c2ccc(-c3cnn(-c4ccc(Cl)c(Cl)c4)c3)cc12', 'EC50', '200 to 1000 nM'),
  ('CCc1ccc(-n2cc(-c3ccc4[nH]cc(NC(=O)C(O)C(F)(F)F)c4c3)cn2)cc1 (stereo not shown)', 'EC50', '1000 to 5000 nM'),
  ('CCc1ccc(-n2cc(-c3ccc4[nH]cc(NC(=O)C5CCCCC5)c4c3)cn2)cc1', 'EC50', '40 to 200 nM'),
  ('Cn1cc(C(=O)Nc2c[nH]c3ccc(-c4cnn(-c5ccc(C(F)(F)F)cc5)c4)cc23)cn1', 'EC50', '200 to 1000 nM');

As a next step, examine the molecule that follows.
May I ask what EC50 has been recorded for O=C(CCC(F)(F)F)Nc1c[nH]c2ccc(-c3cnn(-c4ccc(C(F)(F)F)cc4)c3)cc12 ?
200 to 1000 nM

* * *

- tgt: STING (Homo sapiens, UniProt Q86WV6, G230A/H232R/R293Q/R71H)
- assay_procedure: STING reporter assay: luciferase reporter activity in THP1-Dual KO-IFNAR2 cells stimulated with 2′3′cGAMP
- test_settings: 15 μM 2′3′cGAMP, 24h, read-out: hSTING EC50
pEC50: −log10 of the molar value.
The following compounds are shown together with reported pEC50 values.

INSERT INTO measurements (compound, measured) VALUES
  ('CC(=O)NCC(C)(C)C(=O)Nc1c[nH]c2ccc(-c3cnn(-c4ccc(C(F)(F)F)cc4)c3)cc12', '5.30 to 6.00'),
  ('CCc1ccc(-n2cc(-c3ccc4[nH]cc(NC(=O)CC(C)(C)O)c4c3)cn2)cc1', '6.70 to 7.40'),
  ('CN1CCC(C(=O)Nc2c[nH]c3ccc(-c4cnn(-c5ccc(C(F)(F)F)cc5)c4)cc23)C1=O (stereo not shown)', '5.30 to 6.00'),
  ('CCc1ccc(-n2cc(-c3ccc4[nH]cc(NC(=O)C(C)NC(=O)OC(C)(C)C)c4c3)cn2)cc1 (stereo not shown)', '6.00 to 6.70'),
  ('O=C(Nc1c[nH]c2ccc(-c3cnn(-c4ccc(C(F)(F)F)cc4)c3)cc12)[C@@H]1CC(F)(F)CN1', '4.00 to 5.30'),
  ('Cn1ccc(C(=O)Nc2c[nH]c3ccc(-c4cnn(-c5ccc(C(F)(F)F)cc5)c4)cc23)n1', '6.00 to 6.70');

As a next step, examine the compound that follows.
May I ask what pEC50 has been recorded for O=C(Nc1c[nH]c2ccc(-c3cnn(-c4ccc(C(F)(F)F)cc4)c3)cc12)C1CC(F)C1 (stereo not shown) ?
4.00 to 5.30
